- study-system: Drosophila melanogaster bursicon receptor (rickets, LGR2)
- method: inhibitors of bursicon-driven CRE reporter signaling – cell-based, HEK293, CRE-luciferase, luminescence, dry powder, dose response (AID 977612)
- setup-conditions: bursicon-stimulated, antagonist luminescence
The source made the active and inactive calls.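 Rule for the calls: active = compounds lowering the signal whose fitted AC50 is at most twice their top tested dose; inconclusive = flat fit with 30 to 70% inhibition, or poor fit; inactive = the rest.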
A correct response names exactly one class from T = active, F = inactive

C[C@H](CO)N1C[C@H](C)[C@H](CN(C)C(=O)Nc2ccccc2)OCCCC[C@H](C)Oc2ccc(NC(=O)CCC(F)(F)F)cc2C1=O: T
C[C@H](CO)N1C[C@H](C)[C@H](CN(C)C(=O)Nc2cccc3ccccc23)OCCCC[C@H](C)Oc2ccc(NC(=O)CCC(F)(F)F)cc2C1=O: T
C[C@H](CO)N1C[C@H](C)[C@H](CN(C)C(=O)Nc2ccc3c(c2)OCO3)OCCCC[C@H](C)Oc2ccc(NC(=O)C3CCCCC3)cc2C1=O: T
C[C@@H]1CCCCO[C@@H](CN(C)C(=O)Nc2cccc3ccccc23)[C@@H](C)CN([C@@H](C)CO)C(=O)c2cc(NC(=O)C3CCCCC3)ccc2O1: F
C[C@H](CO)N1C[C@H](C)[C@H](CN(C)C(=O)Nc2ccc3c(c2)OCO3)OCCCC[C@H](C)Oc2ccc(NC(=O)NC3CCCCC3)cc2C1=O: T
C[C@@H]1CN([C@H](C)CO)C(=O)c2cc(NC(=O)C3CCCCC3)ccc2O[C@@H](C)CCCCO[C@@H]1CN(C)C(=O)Nc1cccc2ccccc12: F
COc1ccc(NC(=O)N(C)C[C@@H]2OCCCC[C@H](C)Oc3ccc(NC(=O)NC4CCCCC4)cc3C(=O)N([C@H](C)CO)C[C@@H]2C)cc1: T
COc1ccc(S(=O)(=O)N(C)C[C@@H]2OCCCC[C@H](C)Oc3ccc(NS(=O)(=O)c4ccc(Cl)cc4)cc3C(=O)N([C@@H](C)CO)C[C@@H]2C)cc1: T

Prompt: Status in this test for `C[C@H]1CCCCO[C@@H](CN(C)C(=O)Nc2ccc(C(F)(F)F)cc2)[C@@H](C)CN([C@@H](C)CO)C(=O)c2cc(NC(=O)CCC(F)(F)F)ccc2O1` ?
Completion: T

Prompt: Which result was noted for this molecule in the test: `C[C@H](CO)N1C[C@H](C)[C@H](CN(C)C(=O)Nc2ccccc2)OCCCC[C@H](C)Oc2ccc(NC(=O)NC3CCCCC3)cc2C1=O`
Completion: T

Prompt: Dear all, I need the recorded test outcome for `COc1ccc(NC(=O)N(C)C[C@@H]2OCCCC[C@H](C)Oc3ccc(NC(=O)C4CCCCC4)cc3C(=O)N([C@H](C)CO)C[C@@H]2C)cc1` , thank you.
Completion: T

Prompt: Please state the recorded outcome for this molecule: `C[C@H](CO)N1C[C@H](C)[C@H](CN(C)C(=O)Nc2ccc(C(F)(F)F)cc2)OCCCC[C@H](C)Oc2ccc(NC(=O)CCC(F)(F)F)cc2C1=O`
Completion: T

----------
- study-system: Drosophila melanogaster bursicon receptor (rickets, LGR2)
- method: inhibitors of bursicon-driven CRE reporter signaling – cell-based, HEK293, CRE-luciferase, luminescence, dry powder, dose response (AID 977612)
- setup-conditions: bursicon-stimulated, antagonist luminescence
Activity calls are given as the source filed them.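 Rule for the calls: active = compounds lowering the signal whose fitted AC50 is at most twice their top tested dose; inconclusive = flat fit with 30 to 70% inhibition, or poor fit; inactive = the rest.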
Classes to choose from: 1 = active, 0 = inactive

C[C@@H]1CCCCO[C@H](CN(C)C(=O)Nc2cccc3ccccc23)[C@@H](C)CN([C@@H](C)CO)C(=O)c2cc(NC(=O)C3CCCCC3)ccc2O1: 0
C[C@@H]1CN([C@@H](C)CO)C(=O)c2cc(NC(=O)C3CCCCC3)ccc2O[C@@H](C)CCCCO[C@H]1CN(C)C(=O)Nc1cccc2ccccc12: 0

Okay, next one:
Prompt: Look up the recorded call for `C[C@H](CO)N1C[C@H](C)[C@H](CN(C)C(=O)Nc2ccccc2)OCCCC[C@H](C)Oc2ccc(NC(=O)C3CCCCC3)cc2C1=O` in this test.
Completion: 1

----------
- study-system: Drosophila melanogaster bursicon receptor (rickets, LGR2)
- method: inhibitors of bursicon-driven CRE reporter signaling – cell-based, HEK293, CRE-luciferase, luminescence, dry powder, dose response (AID 977612)
- setup-conditions: bursicon-stimulated, antagonist luminescence
Activity calls are given as the source filed them.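 Rule for the calls: active = compounds lowering the signal whose fitted AC50 is at most twice their top tested dose; inconclusive = flat fit with 30 to 70% inhibition, or poor fit; inactive = the rest.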
The reply should be one of these categories: label 1 = active, label 0 = inactive

The following molecules have reported results that may help.
C[C@H](CO)N1C[C@H](C)[C@H](CN(C)C(=O)Nc2cccc3ccccc23)OCCCC[C@H](C)Oc2ccc(NC(=O)c3ccccc3)cc2C1=O: label 1
C[C@H](CO)N1C[C@H](C)[C@H](CN(C)C(=O)Nc2ccc(F)cc2)OCCCC[C@H](C)Oc2ccc(NC(=O)C3CCCCC3)cc2C1=O: label 1
C[C@@H]1CN([C@H](C)CO)C(=O)c2cc(NC(=O)C3CCCCC3)ccc2O[C@@H](C)CCCCO[C@H]1CN(C)C(=O)Nc1cccc2ccccc12: label 0
C[C@H](CO)N1C[C@H](C)[C@H](CN(C)C(=O)Nc2cccc3ccccc23)OCCCC[C@H](C)Oc2ccc(NC(=O)NC3CCCCC3)cc2C1=O: label 1
C[C@H](CO)N1C[C@H](C)[C@H](CN(C)C(=O)Nc2ccc(F)cc2)OCCCC[C@H](C)Oc2ccc(NC(=O)NC3CCCCC3)cc2C1=O: label 1

Prompt: State the result this test recorded for `C[C@H]1CCCCO[C@@H](CN(C)C(=O)Nc2ccc(F)cc2)[C@@H](C)CN([C@@H](C)CO)C(=O)c2cc(NC(=O)C3CCCCC3)ccc2O1` .
Completion: label 1
